test: Tested for inhibition of ICAM expression by ELISA at the dose of 30 uM
Property: pIC50
pIC50 here is simply -log10 of the concentration when that concentration is written in mol/L.

Qu. Give its pIC50 value. Item: COc1ccc2c(c1)c(OC(C)C)c(C(N)=O)[s+]2[O-] (stereo unspecified)
Ans. 5.40

The measured values listed here are drawn from BindingDB's records for doi:10.1021/jm00032a001.
